Value source: paper PMC6213796

Test Target: Rabbit lung ACE (Oryctolagus cuniculus)
Construct: ACE of rabbit lung, and other chemicals of analytical grade were obtained from Sigma Chemical Co; purchased Sigma Chemical Co. (St. Louis, MO, USA); host or cells: rabbit lung tissue
Sequence (P12822 34-1310): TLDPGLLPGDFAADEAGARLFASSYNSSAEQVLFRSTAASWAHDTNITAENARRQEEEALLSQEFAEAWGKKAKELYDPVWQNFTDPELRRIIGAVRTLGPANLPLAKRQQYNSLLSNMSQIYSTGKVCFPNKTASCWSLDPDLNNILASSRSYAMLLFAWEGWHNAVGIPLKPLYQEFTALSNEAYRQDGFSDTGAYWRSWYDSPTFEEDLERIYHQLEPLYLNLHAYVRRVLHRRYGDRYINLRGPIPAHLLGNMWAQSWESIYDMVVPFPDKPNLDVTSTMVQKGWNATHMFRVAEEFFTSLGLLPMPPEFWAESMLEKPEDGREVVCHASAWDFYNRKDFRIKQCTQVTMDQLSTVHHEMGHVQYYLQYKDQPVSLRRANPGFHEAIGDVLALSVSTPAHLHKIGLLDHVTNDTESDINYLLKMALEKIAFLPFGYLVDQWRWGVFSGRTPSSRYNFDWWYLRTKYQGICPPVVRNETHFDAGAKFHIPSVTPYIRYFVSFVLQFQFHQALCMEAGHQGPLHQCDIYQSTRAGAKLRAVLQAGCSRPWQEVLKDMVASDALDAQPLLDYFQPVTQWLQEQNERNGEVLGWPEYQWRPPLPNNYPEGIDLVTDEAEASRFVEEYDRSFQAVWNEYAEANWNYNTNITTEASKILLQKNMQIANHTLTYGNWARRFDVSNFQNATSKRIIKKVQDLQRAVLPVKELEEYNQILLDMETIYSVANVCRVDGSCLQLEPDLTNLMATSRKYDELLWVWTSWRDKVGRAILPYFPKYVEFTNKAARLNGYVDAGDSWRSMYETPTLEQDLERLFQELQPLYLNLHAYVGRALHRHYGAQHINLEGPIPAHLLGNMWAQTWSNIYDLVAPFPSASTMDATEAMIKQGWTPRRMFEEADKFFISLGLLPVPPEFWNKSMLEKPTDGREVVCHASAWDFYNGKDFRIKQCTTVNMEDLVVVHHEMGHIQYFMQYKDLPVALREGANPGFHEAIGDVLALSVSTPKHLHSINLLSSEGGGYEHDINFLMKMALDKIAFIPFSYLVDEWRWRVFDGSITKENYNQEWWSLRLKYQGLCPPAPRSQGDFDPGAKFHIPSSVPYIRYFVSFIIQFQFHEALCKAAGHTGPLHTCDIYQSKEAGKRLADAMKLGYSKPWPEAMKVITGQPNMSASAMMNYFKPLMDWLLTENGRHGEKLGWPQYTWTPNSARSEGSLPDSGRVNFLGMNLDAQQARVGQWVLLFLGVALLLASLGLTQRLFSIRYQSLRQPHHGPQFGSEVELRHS
Test Protocol: In vitro assay for ACE-inhibitory activity (HHL substrate, RP-HPLC of hippuric acid)
Assay type: biochemical
Particulars: IC50 (equivalent in mg/mL), peaks F7 to F10, converted from μM
Residues, ends and D or L forms follow the SMILES beside them.
Property Name: IC50 (µM)
Write it as a number; the unit µM goes unstated.

Ask: Please give the measured IC50 for this compound: CC(C)[C@H](N)C(=O)N[C@@H](Cc1c[nH]c2ccccc12)C(=O)O [Peak F8, Val–Trp] (H-Val-Trp-OH)
Reply: 0.593

====

Test Target: Rabbit lung ACE (Oryctolagus cuniculus)
Construct: ACE of rabbit lung, and other chemicals of analytical grade were obtained from Sigma Chemical Co; purchased Sigma Chemical Co. (St. Louis, MO, USA); host or cells: rabbit lung tissue
Test Protocol: In vitro assay for ACE-inhibitory activity (HHL substrate, RP-HPLC of hippuric acid)
Assay type: biochemical
Particulars: IC50, peptides of peaks F7 to F10 from PN-1G
Residues, ends and D or L forms follow the SMILES beside them.
Property Name: IC50

Ask: # returns recorded IC50 (system: Rabbit lung ACE (Oryctolagus cuniculus)) for CC(C)[C@H](N)C(=O)N[C@@H](Cc1c[nH]c2ccccc12)C(=O)O [Peak F8, Val–Trp] (H-Val-Trp-OH)
Reply: 580 nM
